assayDetails: Liver Microsome Stability Assay (rat)
measurementSetup: rat liver microsomes, with NADPH, 1.0 uM compound
Please provide measured Liver Microsome Stability (Multiple Species): Rat - % Remaining after 30 min w/NADPH for the entries that follow.
Give bare numbers, in %.

CC(=O)N(C)C/C=C/c1csc(NC(=O)c2cccn2Cc2ccncc2)n1 [Compound E15] = 0.53
CC(C#N)n1cnc(/C=C/c2csc(NC(=O)c3cccn3Cc3ccnc(F)c3)n2)c1 (stereo not shown) [Compound B107] = 18.8
CC(C)n1cnc(/C=C/c2csc(NC(=O)c3cccn3Cc3ccnc(F)c3)n2)c1 [Compound B45] = 16.3
CC(CC(N)=O)n1cnc(/C=C/c2csc(NC(=O)c3cccn3Cc3ccnc(F)c3)n2)c1 (stereo not shown) [Compound B111] = 75.4
Cc1cc(C(=O)Nc2nc([C@H]3CCCN3c3ccc(OC4CCN(C(N)=O)CC4)cc3)cs2)n(Cc2ccnc(F)c2)c1 [Compound A166] = 78.7
O=C(Nc1nc([C@H]2CCCN2c2ccccc2)cs1)c1cccn1CCCCc1nnn[nH]1 [Compound C4] = 62.1
O=C(Nc1nc(/C=C/C2CN(c3ccccc3)CCO2)cs1)c1cccn1Cc1ccncc1 (stereo not shown) [Compound B18] = 2.09
CN(C)S(=O)(=O)N1CC(Oc2ccc(N3CCC[C@@H]3c3csc(NC(=O)c4cccn4Cc4ccnc(F)c4)n3)cc2)C1 [Compound A148] = 28.3

Respectfully, I request Liver Microsome Stability (Multiple Species): Rat - % Remaining after 30 min w/NADPH for each entry included below.
1. O=C(Nc1nc([C@H]2CCCN2c2ccccc2)cs1)c1cccn1Cc1ccncc1Br [Compound E22]
2. O=C(Nc1nc([C@@H]2CCCN(c3ccccn3)C2)cs1)c1cccn1Cc1ccncc1 [Compound E47]
3. N#CCCCn1cccc1C(=O)Nc1nc([C@H]2CCCN2c2ccccc2)cs1 [Compound C2]
4. CC(=O)N1CC(Oc2ccc(N3CCC[C@@H]3c3csc(NC(=O)c4cccn4Cc4ccnc(F)c4)n3)cc2)C1 [Compound A81]
5. O=C(Nc1nc([C@H]2CCCN2c2ccccc2)cs1)c1cccn1-c1cccc2cnccc12 [Compound C111]
6. O=C(Nc1nc([C@H]2CCCN2c2ccc(O[C@@H]3CCOC3)cc2)cs1)c1cccn1Cc1ccncc1 [Compound A3]
7. O=C(Nc1nc([C@H]2CCCN2c2ccc(O[C@H]3CCOC3)cc2)cs1)c1cccn1Cc1ccncc1 [Compound A4]

output:
[0.79, 2.13, 17.6, 68.9, 0.62, 20.1, 15.4]

// batch mode: one Liver Microsome Stability (Multiple Species): Rat - % Remaining after 30 min w/NADPH value per listed entry
1. NC(=O)c1ccc(N2CCC[C@@H]2c2csc(NC(=O)c3cccn3CC3CCOCC3)n2)cc1 [Compound C105]
2. O=C(Nc1nc([C@H]2CCCN2c2ccccc2)cs1)c1cccn1Cc1ccnc(Br)c1 [Compound E23]
3. CC(CC#N)n1cnc(/C=C/c2csc(NC(=O)c3cccn3Cc3ccnc(F)c3)n2)c1 (stereo not shown) [Compound B110]
4. Cc1ccc(/C=C/c2csc(NC(=O)c3cccn3Cc3ccnc(F)c3)n2)nc1F [Compound B49]
5. O=C(Nc1nc(/C=C/[C@@H]2CCCCN2)cs1)c1cccn1Cc1ccncc1 [Compound E18]

output:
1. 1.71
2. 4.14
3. 32.4
4. 4.13
5. 19.4

Return reported Liver Microsome Stability (Multiple Species): Rat - % Remaining after 30 min w/NADPH values for all items listed beneath this line.
1. CCn1cnc(/C=C/c2csc(NC(=O)c3cccn3Cc3ccnc(F)c3)n2)c1C [Compound B117]
2. NC(=O)CCCn1cccc1C(=O)Nc1nc([C@H]2CCCN2c2ccccc2)cs1 [Compound C7]
3. Cc1c(/C=C/c2csc(NC(=O)c3cccn3Cc3ccncc3)n2)ncn1C(C)C [Compound B58]
4. CNCCOc1ccc(N2CCC[C@@H]2c2csc(NC(=O)c3cccn3Cc3ccnc(F)c3)n2)cc1 [Compound A103]
5. CC(=O)NCc1ccc(N2CCC[C@@H]2c2csc(NC(=O)c3cccn3Cc3ccnc(F)c3)n2)cc1 [Compound A64]
6. CC(C)n1cc(/C=C/c2csc(NC(=O)c3cccn3Cc3ccnc(F)c3)n2)nc1CO [Compound B103]
7. N#Cc1cc(Cn2cccc2C(=O)Nc2nc([C@H]3CCCN3c3ccccc3)cs2)ccn1 [Compound E60]

output:
4.95
27.6
1.67
28.3
6.39
19.5
2.04

input: Request the reported Liver Microsome Stability (Multiple Species): Rat - % Remaining after 30 min w/NADPH associated with O=C(Nc1nc([C@H]2CCCN2c2ccc(C3(O)CCC3)cc2)cs1)c1cccn1Cc1ccnc(F)c1 [Compound A114]
output: 8.6

Sourced from patent US20230286973A1
